measured target: UniProtKB Q9H2K2
assay summary: Biochemical IC50 TNKS2
condition label: read-out: Biochemical IC50 TNKS2
property: pIC50
pIC50 here is simply -log10 of the concentration when that concentration is written in mol/L.

-- ask What does the record list as pIC50 for CCOc1ccc(-c2nnc([C@H]3C[C@H](NC(=O)c4ccccc4)C3)n2-c2ccccc2)nc1 [Example 72] ?
-- reply 7.85

-- ask What does the record list as pIC50 for O=C(N[C@H]1C[C@H](c2nnc(-c3ccncn3)n2-c2ccccc2Cl)C1)c1cccc2ncccc12 [Example 7] ?
-- reply 6.46

-- ask What does the record list as pIC50 for O=C(N[C@H]1C[C@H](c2nnc(-c3ccncn3)n2-c2ccccc2Cl)C1)c1ccncn1 [Example 11] ?
-- reply 8.46

-- ask What does the record list as pIC50 for O=C(N[C@H]1C[C@H](c2nnc(-c3ccncn3)n2-c2ccccc2Cl)C1)c1ccccc1 [Example 12] ?
-- reply 8.26

-- ask What does the record list as pIC50 for O=C(N[C@H]1C[C@H](c2nnc(-c3ccc(OC4CC4)cn3)n2-c2ccccc2F)C1)c1ccccn1 [Example 106] ?
-- reply 8.07

-- ask What does the record list as pIC50 for O=C(N[C@H]1C[C@H](c2nnc(-c3ccncn3)n2-c2ccccc2Cl)C1)c1cccc2cccnc12 [Example 4] ?
-- reply 8.27

-- ask What does the record list as pIC50 for O=C(N[C@H]1C[C@H](c2nnc(-c3ccncn3)n2-c2ccccc2Cl)C1)c1ccc(F)cc1 [Example 15] ?
-- reply 8.39

====

measured target: UniProtKB Q9H2K2
assay summary: Biochemical IC50 TNKS2
condition label: read-out: Biochemical IC50 TNKS2
# label = TRUE if IC50 < 6 nM else FALSE

-- ask Strictly below 6 nM in IC50? CCOc1ccc(C(=O)N[C@H]2C[C@H](c3nnc(-c4ccc(OCC)cn4)n3-c3ccccc3F)C2)nc1 [Example 58]
-- reply TRUE

-- ask Strictly below 6 nM in IC50? O=C(NC12CC(c3nnc(-c4ccncn4)n3-c3ccccc3Cl)(C1)C2)c1ccccn1 [Example 22]
-- reply TRUE

-- ask Strictly below 6 nM in IC50? CCOc1ccc(-c2nnc([C@H]3C[C@H](NC(=O)c4cc5cc(OC)ncc5[nH]4)C3)n2-c2ccccc2F)nc1 [Example 127]
-- reply TRUE

-- ask Strictly below 6 nM in IC50? O=C(N[C@H]1C[C@H](c2nnc(-c3ccccn3)n2-c2ccccc2F)C1)c1ccnc2cc(F)cnc12 [Example 191]
-- reply TRUE

-- ask Strictly below 6 nM in IC50? CS(=O)(=O)c1ccc(-c2nnc([C@H]3C[C@H](NC(=O)c4ccc(F)cn4)C3)n2-c2ccccc2F)nc1 [Example 107]
-- reply TRUE

-- ask Strictly below 6 nM in IC50? CCOc1ccc(-c2nnc([C@H]3C[C@H](NC(=O)c4cccc5c4OCCO5)C3)n2-c2ccccc2F)nc1 [Example 116]
-- reply TRUE

-- ask Strictly below 6 nM in IC50? CCOc1ccc(-c2nnc([C@H]3C[C@H](NC(=O)c4ccc5ncccc5n4)C3)n2-c2ccccc2F)nc1 [Example 96]
-- reply TRUE

-- ask Strictly below 6 nM in IC50? O=C(N[C@H]1C[C@H](c2nnc(-c3ccncn3)n2-c2ccccc2Cl)C1)c1ccccc1F [Example 13]
-- reply FALSE

-- ask Strictly below 6 nM in IC50? CCOc1ccc(-c2nnc([C@H]3C[C@H](NC(=O)c4ccnc5cc(F)cnc45)C3)n2-c2cccnc2)nc1 [Example 164]
-- reply TRUE

-- ask Strictly below 6 nM in IC50? O=C(N[C@H]1C[C@H](c2nnc(-c3ccncn3)n2-c2ccccc2Cl)C1)c1cccc(F)n1 [Example 19]
-- reply TRUE

-- ask Strictly below 6 nM in IC50? O=C(N[C@H]1C[C@H](c2nnc(-c3ccccc3)n2-c2ccccc2F)C1)c1ccc2cnccc2n1 [Example 178]
-- reply FALSE

-- ask Strictly below 6 nM in IC50? CCOc1ccc(-c2nnc([C@H]3C[C@H](NC(=O)c4ccccc4)C3)n2-c2ccccc2Cl)nc1 [Example 136]
-- reply FALSE

-- ask Strictly below 6 nM in IC50? CCOc1ccc(-c2nnc([C@H]3C[C@H](NC(=O)c4ccnc5cc(F)cnc45)C3)n2-c2ccccn2)nc1 [Example 160]
-- reply FALSE

-- ask Strictly below 6 nM in IC50? CCOc1ccc(-c2nnc([C@H]3C[C@H](NC(=O)c4nc5ccccc5[nH]4)C3)n2-c2ccc(C)s2)nc1 [Example 143]
-- reply FALSE

-- ask Strictly below 6 nM in IC50? O=C(N[C@H]1C[C@H](c2nnc(-c3ccncn3)n2-c2ccccc2Cl)C1)c1ccncc1 [Example 8]
-- reply FALSE

====

System: HEK293
assay summary: Cellular IC50 HEK293
Assay type: cell-based
condition label: Homo sapiens, HEK293, read-out: Cellular IC50 HEK293
property: IC50 (nM)
Numbers only; they are read as nM.

-- ask What does the record list as IC50 for CCOc1ccc(-c2nnc([C@H]3C[C@H](NC(=O)c4ccnc5cccnc45)C3)n2-c2cccnc2)nc1 ?
-- reply 16

-- ask What does the record list as IC50 for O=C(N[C@H]1C[C@H](c2nnc(-c3ccc(OC4CC4)cn3)n2-c2ccccc2F)C1)c1ccccn1 ?
-- reply 49

-- ask What does the record list as IC50 for CCOc1ccc(-c2nnc([C@H]3C[C@H](NC(=O)c4ccnc5cc(F)cnc45)C3)n2-c2ccccn2)nc1 ?
-- reply 9

-- ask What does the record list as IC50 for CC(C)Oc1ccc(-c2nnc([C@H]3C[C@H](NC(=O)c4ccccn4)C3)n2-c2ccccc2F)nc1 ?
-- reply 110

-- ask What does the record list as IC50 for O=C(N[C@H]1C[C@H](c2nnc(-c3cnccn3)n2-c2ccccc2F)C1)c1ccccn1 ?
-- reply 355

-- ask What does the record list as IC50 for Cc1cccc(-c2nnc([C@H]3C[C@H](NC(=O)c4cc(F)cc5nccnc45)C3)n2-c2ccccc2F)n1 ?
-- reply 0.169

-- ask What does the record list as IC50 for CCOc1ccc(-c2nnc([C@H]3C[C@H](NC(=O)c4cccc5nccnc45)C3)n2-c2ccccc2F)nc1 ?
-- reply 0.53

====

measured target: TNKS2 (Homo sapiens (Human), UniProt Q9H2K2)
Sequence (Q9H2K2 whole entry): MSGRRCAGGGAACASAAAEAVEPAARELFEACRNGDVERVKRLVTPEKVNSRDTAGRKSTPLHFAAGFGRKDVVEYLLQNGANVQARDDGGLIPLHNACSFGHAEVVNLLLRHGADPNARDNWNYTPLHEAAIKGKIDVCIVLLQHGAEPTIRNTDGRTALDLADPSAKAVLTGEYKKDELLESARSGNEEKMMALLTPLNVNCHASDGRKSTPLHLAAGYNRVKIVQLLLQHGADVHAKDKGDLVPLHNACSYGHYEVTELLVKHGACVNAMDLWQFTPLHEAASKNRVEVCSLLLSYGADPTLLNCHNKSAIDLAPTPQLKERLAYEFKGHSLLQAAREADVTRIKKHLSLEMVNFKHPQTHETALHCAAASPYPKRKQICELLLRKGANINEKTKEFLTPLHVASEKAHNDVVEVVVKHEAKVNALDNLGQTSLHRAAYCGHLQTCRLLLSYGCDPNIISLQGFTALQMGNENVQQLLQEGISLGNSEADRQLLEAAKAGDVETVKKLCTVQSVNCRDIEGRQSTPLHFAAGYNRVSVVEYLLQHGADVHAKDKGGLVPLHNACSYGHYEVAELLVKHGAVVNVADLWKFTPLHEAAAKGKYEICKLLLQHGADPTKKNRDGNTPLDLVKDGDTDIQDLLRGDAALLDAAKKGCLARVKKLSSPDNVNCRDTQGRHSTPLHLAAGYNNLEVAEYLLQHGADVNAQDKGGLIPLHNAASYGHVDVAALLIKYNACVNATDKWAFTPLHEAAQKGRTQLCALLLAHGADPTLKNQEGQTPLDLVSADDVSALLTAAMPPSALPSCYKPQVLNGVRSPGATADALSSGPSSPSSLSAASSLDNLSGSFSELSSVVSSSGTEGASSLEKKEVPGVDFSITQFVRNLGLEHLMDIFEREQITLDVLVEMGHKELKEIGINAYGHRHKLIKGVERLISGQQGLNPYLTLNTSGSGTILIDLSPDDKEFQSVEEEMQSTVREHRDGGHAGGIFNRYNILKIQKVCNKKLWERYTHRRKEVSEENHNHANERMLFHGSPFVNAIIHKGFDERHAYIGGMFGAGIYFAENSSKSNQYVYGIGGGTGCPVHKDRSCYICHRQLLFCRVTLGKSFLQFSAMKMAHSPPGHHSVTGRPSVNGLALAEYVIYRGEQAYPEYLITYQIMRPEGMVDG
assay summary: Biochemical IC50 TNKS2
property: IC50 (nM)
Numbers only; they are read as nM.

-- ask What does the record list as IC50 for [2H]C([2H])([2H])C([2H])([2H])Oc1ccc(-c2nnc([C@H]3C[C@H](NC(=O)c4cccc5cccnc45)C3)n2-c2ccccc2F)nc1 [Example 95] ?
-- reply 3.5

-- ask What does the record list as IC50 for [2H]C([2H])([2H])C([2H])([2H])Oc1ccc(-c2nnc([C@H]3C[C@H](NC(=O)c4ccnc5cc(F)cnc45)C3)n2-c2ccccc2F)nc1 [Example 94] ?
-- reply 2.7

-- ask What does the record list as IC50 for [2H]C([2H])([2H])C([2H])([2H])Oc1ccc(-c2nnc([C@H]3C[C@H](NC(=O)c4cccc5cc(F)cnc45)C3)n2-c2ccccc2F)nc1 [Example 141] ?
-- reply 2.9

====

measured target: TNKS2 (Homo sapiens (Human), UniProt Q9H2K2)
assay summary: Biochemical IC50 TNKS2
property: IC50 (nM)
Numbers only; they are read as nM.

-- ask What does the record list as IC50 for [2H]C([2H])([2H])Oc1ccc(-c2nnc([C@H]3C[C@H](NC(=O)c4ccccn4)C3)n2-c2ccccc2F)nc1 ?
-- reply 5.6

-- ask What does the record list as IC50 for CCOc1ccc(-c2nnc([C@H]3C[C@H](NC(=O)c4ccc(C(C)O)cn4)C3)n2-c2ccccc2F)nc1 (mixture of isomers) ?
-- reply 8.2

-- ask What does the record list as IC50 for [2H]C([2H])([2H])C([2H])([2H])Oc1ccc(-c2nnc([C@H]3C[C@H](NC(=O)c4cnn5ccccc45)C3)n2-c2ccccc2F)nc1 ?
-- reply 23

====

measured target: TNKS2 (Homo sapiens (Human))
assay summary: Biochemical IC50 TNKS2
condition label: read-out: Biochemical IC50 TNKS2
Assign log10(IC50) to each entry below.
The common logarithm of IC50 in nM is what is listed.

-- ask What does the record list as log10(IC50) for CCOc1ccc(-c2nnc([C@H]3C[C@H](NC(=O)c4ccnc5cccnc45)C3)n2-c2ccccc2)nc1 [Example 69] ?
-- reply 0.30

-- ask What does the record list as log10(IC50) for O=C(N[C@H]1C[C@H](c2nnc(-c3nccs3)n2-c2ccc(Cl)s2)C1)c1ccnc2cccnc12 [Example 78] ?
-- reply 0.30

-- ask What does the record list as log10(IC50) for CCOc1ccc(-c2nnc([C@H]3C[C@H](NC(=O)c4cc5ccncc5[nH]4)C3)n2-c2ccccc2F)nc1 [Example 126] ?
-- reply 0.61

-- ask What does the record list as log10(IC50) for O=C(N[C@H]1C[C@H](c2nnc(-c3nccs3)n2-c2ccccc2Cl)C1)c1ccnc2cccnc12 [Example 41] ?
-- reply 0.30

-- ask What does the record list as log10(IC50) for CCOc1ccc(-c2nnc([C@H]3C[C@H](NC(=O)c4ccc(F)cc4)C3)n2-c2ccccc2Cl)nc1 [Example 137] ?
-- reply 0.69

-- ask What does the record list as log10(IC50) for O=C(N[C@H]1C[C@H](c2nnc(-c3nccs3)n2-c2ccccn2)C1)c1ccnc2cc(F)cnc12 [Example 39] ?
-- reply 1.45

-- ask What does the record list as log10(IC50) for CCOc1ccc(-c2nnc([C@H]3C[C@H](NC(=O)c4cc5ccccc5cn4)C3)n2-c2ccccc2F)nc1 [Example 99] ?
-- reply 0.73

-- ask What does the record list as log10(IC50) for O=C(N[C@H]1C[C@H](c2nnc(-c3ccncn3)n2-c2ccccc2Cl)C1)c1cccnc1 [Example 9] ?
-- reply 1.26

-- ask What does the record list as log10(IC50) for Cc1ccc(-n2c(-c3nccs3)nnc2[C@H]2C[C@H](NC(=O)c3ccnc4cccnc34)C2)s1 [Example 89] ?
-- reply 0.43

-- ask What does the record list as log10(IC50) for Cc1ccc(-n2c(-c3nccs3)nnc2[C@H]2C[C@H](NC(=O)c3ccccn3)C2)s1 [Example 88] ?
-- reply 1.67

-- ask What does the record list as log10(IC50) for CCOc1ccc(-c2nnc([C@H]3C[C@H](NC(=O)c4ccc(C(C)(C)O)cn4)C3)n2-c2ccccc2F)nc1 [Example 101] ?
-- reply 1.34

-- ask What does the record list as log10(IC50) for CCOc1ccc(-c2nnc([C@H]3C[C@H](NC(=O)c4cccc5cccnc45)C3)n2-c2cccc(Cl)c2)nc1 [Example 139] ?
-- reply 0.94

-- ask What does the record list as log10(IC50) for O=C(N[C@H]1C[C@H](c2nnc(-c3nccs3)n2-c2ccccc2)C1)c1ccnc2cccnc12 [Example 33] ?
-- reply 0.49

-- ask What does the record list as log10(IC50) for CCOc1ccc(-c2nnc([C@H]3C[C@H](NC(=O)c4ccccc4)C3)n2-c2ccccc2F)nc1 [Example 52] ?
-- reply 0.98

-- ask What does the record list as log10(IC50) for O=C(N[C@H]1C[C@H](c2nnc(-c3nccs3)n2-c2cccnc2)C1)c1ccccn1 [Example 109] ?
-- reply 2.90
